Assay: soluble on expression in E. coli; label from the status in PepcDB or PDB records
experimental endpoint: soluble on expression in E. coli

Worked set:
item sequence	soluble on expression in E. coli
MKTVLVDWNLIPYAEAWQRQTEWFDTLVRAKAQGEAYENRIIMCEHPHVYTLGRSGKENNMLLNDDQLKAIQATLFHIDRGGDITYHGPGQLVCYPILNLEEFHLGLKEYVHLLEEAVIRVCASYGIEAGRLEKATGVWLEGSTPRARKICAIGVRSSHYVTMHGLALNVNTDLRYFSYIHPCGFIDKGVTSLRQELKHEVPMDEVKQRLECELGRLLNEKKQQIAQ	not soluble
MSLAKKILVTGAGGYIGRHVVSALLDAGQDVIASDLRLDGVDERATKVQANIFEPNDNLFEELGAPDVCLHMAWRDGFKHNSDNHMGDLSNHYRFLKHMLDSGLKQIAVMGTMHEVGYWEGAIDENTPCHPASMYGIAKNALREATLMLAKEYDATAQWIRAYYIVGDDAHGNSIFSKLLQAANDGKATFPFTTGKNKYDFIDVDELARQISAVVSQDAVDGVINCCTGEPMTLAERVERYIKENDLNIKLDYGAFPDRPYDSPGVWGDASKINKIMKEGHHHHHH	soluble
MTAKPTVFVVDDDMSVREGLRNLLRSAGFEVETFDCASTFLEHRRPEQHGCLVLDMRMPGMSGIELQEQLTAISDGIPIVFITAHGDIPMTVRAMKAGAIEFLPKPFEEQALLDAIEQGLQLNAERRQARETQDQLEQLFSSLTGREQQVLQLTIRGLMNKQIAGELGIAEVTVKVHRHNIMQKLNVRSLANLVHLVEKYESFERGVS	soluble
MGHHHHHHSHGTRVTLRFQMKMFESADSTATRSGQDLWAEICSCLPNPEQEDGANNAFSDSFVDSCPEGEGQREVADFAVQPAVKPWAPLQDSEVYLASLEKKLRRIKGLNQEVTSKDMLRTLAQAKKECWDRFLQEKLASEFFVDGLDSDESTLEHFKRWLQPDKVAVSTEEVQYLIPPESQVEKPVAEDEPAAGDKPAAAEQ	soluble
MSGSTHTTERGTGRAAEAAPPATDRFACYVYGIVPEDVEVSPGTVGVGEPAGQVTLVRHGEIAALVSPVDVDRPLGRASDLVAHERLLDGAAAEVPVLPFRFGAVLTSPEAVVEELLAPHHDQFAAALRQLEGKAQHVLKARYAERPVLLEILRENAEARRLRDRIRDLPEDATRTERIRLGELITQAIEAKREADTQAVLDRFASCTVAANVRDPSHERDAAHVAFLVEHAKADEFAEAVEELSDEWADRVEVRVLGPMAPYDFVVAEG	not soluble

Please turn your attention to the following entry.
Record MARRISSQGKVTISVDEYSSNPTQAFTHYNINQSRFQPPHVHMVEPLPYDAPKSVGHTRFVCVSDTHSRTDGIQMPFGDVLLHTGDFTELGLPSEVKKFNDWLGGLPYEYKVVIAGNHELTFDKDFMAELIKQDYYRFPSVSKLRSEDFDDVQSLLTNCVYLQDSEVTIKGFRIYGAPWTPWFNGWGFNLPRGQSLLDKWNQIPEDVDILMTHGPPLGFRDWVPKELQRVGCVELLNTVQKRVRPKLHAYGGIHEGYGIMTDGYTTFINSSTCTVSFQPTNPPIIFDLPNPGNS , field soluble on expression in E. coli: not soluble
